subjectOfTest: Amyloid-beta precursor protein (Homo sapiens, UniProt P05067)
Sequence (P05067 whole entry): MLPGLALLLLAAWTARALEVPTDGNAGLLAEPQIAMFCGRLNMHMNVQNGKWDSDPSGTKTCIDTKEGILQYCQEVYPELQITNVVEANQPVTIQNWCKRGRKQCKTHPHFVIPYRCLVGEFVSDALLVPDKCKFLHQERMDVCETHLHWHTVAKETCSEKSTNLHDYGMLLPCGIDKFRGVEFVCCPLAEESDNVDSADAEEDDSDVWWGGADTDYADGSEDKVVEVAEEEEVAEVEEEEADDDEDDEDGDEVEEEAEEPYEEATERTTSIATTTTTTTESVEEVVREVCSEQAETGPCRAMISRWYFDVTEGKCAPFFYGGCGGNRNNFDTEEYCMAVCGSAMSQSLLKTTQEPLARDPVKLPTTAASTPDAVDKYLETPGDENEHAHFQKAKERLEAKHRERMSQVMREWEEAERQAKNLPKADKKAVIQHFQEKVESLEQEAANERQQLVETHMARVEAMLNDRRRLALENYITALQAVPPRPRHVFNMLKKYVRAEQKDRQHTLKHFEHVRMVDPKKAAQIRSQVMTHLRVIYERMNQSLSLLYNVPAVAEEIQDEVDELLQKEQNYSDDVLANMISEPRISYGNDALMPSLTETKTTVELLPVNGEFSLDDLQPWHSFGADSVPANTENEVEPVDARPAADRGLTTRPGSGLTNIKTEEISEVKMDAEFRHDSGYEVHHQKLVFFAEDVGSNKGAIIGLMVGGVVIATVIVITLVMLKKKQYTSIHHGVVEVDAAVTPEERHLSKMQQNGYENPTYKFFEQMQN
testDetails: Displacement of [3H]PiB from human amyloid beta (1-40) at 100 nM after 180 mins by liquid scintillation counter
assayEndpoint: inhibition (%)

Use these answered entries as a reference point.
>  <entrySmiles>
COc1ccc2c(c1)sc1nc(-c3ccc(N4CCCC4)cc3)cn12

>  <inhibition, %>
91

$$$$
>  <entrySmiles>
COc1ccc2c(c1)sc1nc(-c3ccc(N)cc3)cn12

>  <inhibition, %>
57

$$$$
>  <entrySmiles>
COc1ccc2c(c1)sc1nc(-c3ccc(N(C)C)cc3)cn12

>  <inhibition, %>
89

$$$$
>  <entrySmiles>
COc1ccc2c(c1)sc1nc(-c3ccc(NC(C)=O)cc3)cn12

>  <inhibition, %>
44

$$$$

1: Nc1ccc(-c2cn3c(n2)sc2cc(O)ccc23)cc1
2: CNc1ccc(-c2cn3c(n2)sc2cc(OC)ccc23)cc1
Please indicate which has the smaller reported inhibition: 1 , or 2 . Give the chosen item's label as your response.
1
(1: 48%, 2: 95%)

====

subjectOfTest: Amyloid-beta precursor protein (Homo sapiens, UniProt P05067)
testDetails: Displacement of [3H]PiB from human amyloid beta (1-42) at 100 nM after 180 mins by liquid scintillation counter
assayEndpoint: inhibition (%)

>  <entrySmiles>
CCN(CC)c1ccc(-c2cn3c(n2)sc2cc(OC)ccc23)cc1

>  <inhibition / %>
91

$$$$
>  <entrySmiles>
CNc1ccc(-c2nc3ccc(O)cc3s2)cc1

>  <inhibition / %>
83

$$$$
>  <entrySmiles>
COc1ccc2c(c1)sc1nc(-c3ccc(N4CCCC4)cc3)cn12

>  <inhibition / %>
82

$$$$
>  <entrySmiles>
COc1ccc2c(c1)sc1nc(-c3ccc(N)cc3)cn12

>  <inhibition / %>
74

$$$$
>  <entrySmiles>
CNc1ccc(-c2cn3c(n2)sc2cc(O)ccc23)cc1

>  <inhibition / %>
73

$$$$
>  <entrySmiles>
CCN(CC)c1ccc(-c2cn3c(n2)sc2cc(O)ccc23)cc1

>  <inhibition / %>
91

$$$$

====

testDetails: Drug uptake in Balb-C mouse brain assessed as compound remaining at 4-6 MBq after 30 mins by gamma counting
Assay type: ADME, tissue-based
conditions: read-out: Drug uptake
assayEndpoint: remaining at 0.5 h (%)
Dear colleague, please return just the value in %, with no unit written.

Look up remaining at 0.5 h for this molecule: `COc1ccc2c(c1)sc1nc(-c3ccc(N[11CH3])cc3)cn12`
91
